Reported IC50 values for a set of compounds
Assay target: Glucocorticoid Receptor (GR) (Homo sapiens, UniProt P04150)
Sequence (P04150 1-777): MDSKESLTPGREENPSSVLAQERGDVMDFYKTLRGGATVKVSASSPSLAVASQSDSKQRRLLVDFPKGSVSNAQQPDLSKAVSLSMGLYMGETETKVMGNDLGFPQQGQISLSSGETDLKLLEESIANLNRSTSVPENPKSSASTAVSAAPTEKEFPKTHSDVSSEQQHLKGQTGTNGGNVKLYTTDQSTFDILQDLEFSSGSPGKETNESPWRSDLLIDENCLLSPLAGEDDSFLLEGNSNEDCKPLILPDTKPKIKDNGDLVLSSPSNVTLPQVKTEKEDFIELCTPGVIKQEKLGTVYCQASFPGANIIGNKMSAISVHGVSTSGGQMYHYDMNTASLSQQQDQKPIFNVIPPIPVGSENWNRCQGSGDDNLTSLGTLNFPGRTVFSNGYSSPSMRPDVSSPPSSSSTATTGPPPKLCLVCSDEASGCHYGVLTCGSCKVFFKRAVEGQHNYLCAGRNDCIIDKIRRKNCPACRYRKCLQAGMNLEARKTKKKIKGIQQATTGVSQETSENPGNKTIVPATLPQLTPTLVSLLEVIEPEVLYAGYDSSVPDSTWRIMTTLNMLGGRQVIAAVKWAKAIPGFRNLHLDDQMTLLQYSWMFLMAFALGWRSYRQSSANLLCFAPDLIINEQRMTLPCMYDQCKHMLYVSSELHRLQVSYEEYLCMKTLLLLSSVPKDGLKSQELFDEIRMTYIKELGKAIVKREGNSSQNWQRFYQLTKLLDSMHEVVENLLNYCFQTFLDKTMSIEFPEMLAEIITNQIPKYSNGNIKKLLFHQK

Compound	Assay target	IC50
CC[C@@]1(O)CC[C@@]2(Cc3ccccc3)c3ccc(C(=O)Nc4cccnc4C)cc3COC[C@H]2C1	Glucocorticoid Receptor (GR) (Homo sapiens, UniProt P04150)	< 100 nM
Cc1ncccc1NC(=O)c1ccc2c(c1)CCC[C@@H]1C[C@](O)(CC#N)CC[C@]21Cc1ccccc1	Glucocorticoid Receptor (GR) (Homo sapiens, UniProt P04150)	100 to 1000 nM
CC[C@@]1(O)CC[C@@]2(Cc3ccccc3)c3ccc(C(=O)Nc4ccc(-c5cn[nH]c5)nc4C)cc3CCC[C@H]2C1	Glucocorticoid Receptor (GR) (Homo sapiens, UniProt P04150)	< 100 nM
CC[C@@]1(O)CC[C@@]2(Cc3ccccc3)c3ccc(C(=O)Nc4cccnc4C)cc3CCC[C@H]2C1 (single isomer, unassigned)	Glucocorticoid Receptor (GR) (Homo sapiens, UniProt P04150)	< 100 nM
CC[C@@]1(O)CC[C@@]2(Cc3ccccc3)c3ccc(C(=O)Nc4ccc(-c5ccn[nH]5)nc4C)cc3CCC[C@H]2C1 [Example 87]	Glucocorticoid Receptor (GR) (Homo sapiens, UniProt P04150)	< 100 nM
O=C1CC[C@@]2(Cc3ccccc3)C(=O)CCCC[C@H]2C1.O=C1CC[C@]2(Cc3ccccc3)C(=O)CCCC[C@@H]2C1	Glucocorticoid Receptor (GR) (Homo sapiens, UniProt P04150)	> 10000 nM
Cc1ncccc1NC(=O)c1ccc2c(c1)C(=O)NC[C@H]1CC(O)(C(F)(F)F)CC[C@@]21Cc1ccccc1 (stereo partly drawn)	Glucocorticoid Receptor (GR) (Homo sapiens, UniProt P04150)	> 10000 nM
CC[C@@]1(O)CC[C@@]2(Cc3ccccc3)c3ccc(C(=O)Nc4cc(C)[nH]n4)cc3CCC[C@H]2C1	Glucocorticoid Receptor (GR) (Homo sapiens, UniProt P04150)	< 100 nM
Cc1ncccc1NC(=O)c1ccc2c(c1)CCC[C@@H]1CC(=O)CC[C@@]21Cc1ccccc1 (racemic)	Glucocorticoid Receptor (GR) (Homo sapiens, UniProt P04150)	< 100 nM
CC#C[C@]1(O)CC[C@@]2(Cc3ccccc3)c3ccc(C(=O)Nc4cccnc4C)cc3CCC[C@H]2C1 (racemic)	Glucocorticoid Receptor (GR) (Homo sapiens, UniProt P04150)	100 to 1000 nM
CCC[C@@]1(O)CC[C@@]2(CC)c3ccc(C(=O)Nc4cccnc4C)cc3COC[C@H]2C1 (single isomer, unassigned) [Example 138]	Glucocorticoid Receptor (GR) (Homo sapiens, UniProt P04150)	< 100 nM
CCCOC[C@]1(O)CC[C@]2(Cc3ccccc3)c3ccc(C(=O)Nc4cccnc4C)cc3CCC[C@@H]2C1	Glucocorticoid Receptor (GR) (Homo sapiens, UniProt P04150)	1000 to 10000 nM
CCC[C@@]1(O)CC[C@@]2(Cc3ccccc3)c3ccc(C(=O)Nc4cccnc4C)cc3CCC[C@H]2C1 (racemic)	Glucocorticoid Receptor (GR) (Homo sapiens, UniProt P04150)	< 100 nM
CCC[C@]1(O)CC[C@]2(CC)c3ccc(C(=O)Nc4cccnc4C)cc3CCC[C@@H]2C1 (single isomer, unassigned)	Glucocorticoid Receptor (GR) (Homo sapiens, UniProt P04150)	100 to 1000 nM
Cc1ncccc1NC(=O)c1ccc2c(c1)CCC[C@H]1C[C@@](O)(COC(C)C)CC[C@@]21Cc1ccccc1 (racemic)	Glucocorticoid Receptor (GR) (Homo sapiens, UniProt P04150)	< 100 nM
CC[C@@]1(O)CC[C@@]2(Cc3ccccc3)c3ccc(C(=O)Nc4cc(C)nn4C)cc3CCC[C@H]2C1	Glucocorticoid Receptor (GR) (Homo sapiens, UniProt P04150)	< 100 nM
Cc1ncccc1NC(=O)c1ccc2c(c1)CCCC1CC(O)(COC(C)C(F)(F)F)CCC21Cc1ccccc1 (mixture of isomers)	Glucocorticoid Receptor (GR) (Homo sapiens, UniProt P04150)	< 100 nM
CCC[C@@]1(O)CC[C@@]2(CC)c3ccc(C(=O)Nc4cccnc4C)cc3COC[C@H]2C1 (racemic) [Example 136]	Glucocorticoid Receptor (GR) (Homo sapiens, UniProt P04150)	< 100 nM
Cc1ncccc1NC(=O)c1ccc2c(c1)CN(C)C[C@H]1C[C@@H](O)CC[C@@]21Cc1ccccc1	Glucocorticoid Receptor (GR) (Homo sapiens, UniProt P04150)	> 10000 nM
CC[C@@]1(O)CC[C@@]2(Cc3ccccc3)c3ccc(C(=O)Nc4ncccc4C)cc3CCC[C@H]2C1	Glucocorticoid Receptor (GR) (Homo sapiens, UniProt P04150)	< 100 nM
CC[C@@]1(O)CC[C@@]2(Cc3ccccc3)c3cc(C(=O)Nc4cccnc4C)cn3CCC[C@H]2C1 (racemic)	Glucocorticoid Receptor (GR) (Homo sapiens, UniProt P04150)	1000 to 10000 nM
